TESTED ON: OAT1 (Homo sapiens)
Sequence (Q4U2R8 whole entry): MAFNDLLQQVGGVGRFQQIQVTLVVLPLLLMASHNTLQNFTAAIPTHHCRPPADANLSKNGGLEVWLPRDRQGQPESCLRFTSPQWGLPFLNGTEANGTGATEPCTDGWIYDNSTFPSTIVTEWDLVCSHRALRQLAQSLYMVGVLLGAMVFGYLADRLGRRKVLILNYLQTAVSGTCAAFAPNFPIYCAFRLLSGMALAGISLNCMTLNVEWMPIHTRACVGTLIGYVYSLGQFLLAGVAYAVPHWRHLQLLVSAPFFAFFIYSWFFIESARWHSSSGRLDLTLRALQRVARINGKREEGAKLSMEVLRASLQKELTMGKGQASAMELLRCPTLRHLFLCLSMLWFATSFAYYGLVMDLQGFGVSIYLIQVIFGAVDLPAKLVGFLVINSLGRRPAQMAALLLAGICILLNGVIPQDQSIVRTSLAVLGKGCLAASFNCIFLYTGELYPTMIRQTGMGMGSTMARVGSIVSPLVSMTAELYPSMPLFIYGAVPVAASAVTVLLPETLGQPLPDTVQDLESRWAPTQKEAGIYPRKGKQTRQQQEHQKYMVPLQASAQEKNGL
PROTOCOL SUMMARY: OAT1 6-carboxyfluorescein transport in transfected HEK-293T cells
CONDITION DETAILS: 5 μM 6-carboxyfluorescein, 2 min; mean ± SEM; read-out: Potency (IC50) against OAT1
READOUT NAME: pIC50
One number for each entry, as −log10 of the molar value.

Prompt: Which pIC50 is listed for O=C(O)CSc1nnc(Br)n1-c1ccc(C2CC2)c2ccccc12 ?
Response: 5.41

---

Assignment: determine reported IC50 for the given compounds.
TESTED ON: GLUT9 (SLC2A9v2/GLUT9ΔN) (Homo sapiens, UniProt Q9NRM0)
Sequence (Q9NRM0 1-511 isoform Q9NRM0-2): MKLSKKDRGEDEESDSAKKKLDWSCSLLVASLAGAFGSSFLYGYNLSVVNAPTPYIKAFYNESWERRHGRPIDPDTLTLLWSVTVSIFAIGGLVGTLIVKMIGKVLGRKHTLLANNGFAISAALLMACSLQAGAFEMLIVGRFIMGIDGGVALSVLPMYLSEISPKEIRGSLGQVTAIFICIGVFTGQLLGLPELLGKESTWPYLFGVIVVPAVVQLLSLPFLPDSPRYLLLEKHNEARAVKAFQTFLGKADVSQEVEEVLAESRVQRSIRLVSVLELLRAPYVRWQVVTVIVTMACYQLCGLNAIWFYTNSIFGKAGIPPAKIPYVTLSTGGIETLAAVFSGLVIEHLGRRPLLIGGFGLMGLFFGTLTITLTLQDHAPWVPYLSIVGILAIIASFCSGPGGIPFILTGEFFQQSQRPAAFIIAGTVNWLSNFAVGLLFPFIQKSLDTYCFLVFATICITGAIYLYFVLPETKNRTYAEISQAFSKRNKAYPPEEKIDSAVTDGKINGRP
PROTOCOL SUMMARY: GLUT9 urate transport in cRNA-injected oocytes
CONDITION DETAILS: 100 μM 14C-uric acid, 60 min, read-out: Potency against GLUT9

> print(dat)
                           compound.string                                 tested.on  readout.value
1  CCc1oc2ccccc2c1C(=O)c1cc(Br)c(O)c(Br)c1  GLUT9 (SLC2A9v2/GLUT9ΔN) (Homo sapiens, UniProt Q9NRM0)        ~100 µM

From here, focus on the item given below.
Prompt: Item: O=C(O)CSc1nnc(Br)n1-c1ccc(C2CC2)c2ccccc12 Test system: GLUT9 (SLC2A9v2/GLUT9ΔN) (Homo sapiens, UniProt Q9NRM0) Read-out: IC50 Value: ?
Response: > 100 µM

---

TESTED ON: OAT4 (Homo sapiens, UniProt Q9NSA0)
Sequence (Q9NSA0 with tags, fused parts or gaps): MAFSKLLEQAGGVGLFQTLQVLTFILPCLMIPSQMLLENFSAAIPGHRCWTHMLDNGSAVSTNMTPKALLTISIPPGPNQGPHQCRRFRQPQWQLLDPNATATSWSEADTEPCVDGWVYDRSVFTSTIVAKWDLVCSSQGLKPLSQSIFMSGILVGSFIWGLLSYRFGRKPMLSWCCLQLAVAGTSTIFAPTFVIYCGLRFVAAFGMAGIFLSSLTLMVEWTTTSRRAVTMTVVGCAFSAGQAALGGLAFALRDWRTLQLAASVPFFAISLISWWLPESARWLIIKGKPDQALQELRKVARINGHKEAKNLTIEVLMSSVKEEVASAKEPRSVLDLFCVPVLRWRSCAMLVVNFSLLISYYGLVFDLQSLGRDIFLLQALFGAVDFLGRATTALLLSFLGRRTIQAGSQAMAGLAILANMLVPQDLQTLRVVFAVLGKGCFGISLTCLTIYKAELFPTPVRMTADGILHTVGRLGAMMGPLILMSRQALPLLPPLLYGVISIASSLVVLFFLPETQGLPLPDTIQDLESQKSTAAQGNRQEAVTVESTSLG
PROTOCOL SUMMARY: OAT4 urate transport assay in stably transfected HEK293 cells
CONDITION DETAILS: 100 μM 14C-urate, 10 min, OAT4-551G cells; mean ± SEM, three experiments; read-out: Potency (IC50) against OAT4
READOUT NAME: pIC50
Answers are plain numbers, as −log10 of the molar value.

Prompt: Report pIC50 for CCc1oc2ccccc2c1C(=O)c1cc(Br)c(O)c(Br)c1 [Benzbromarone] please.
Response: 5.50
